Provide the reported logP of each item.
Test: Log P, n-octanol/water partition coefficient, HPLC
Format: physicochemical
Answers are plain numbers.

Provide each entry's logP from the list below.
1. O=C(OC[C@H]1O[C@H](OC(=O)c2cc(O)c(O)c(OC(=O)c3cc(O)c(O)c(O)c3)c2)[C@H](OC(=O)c2cc(O)c(O)c(OC(=O)c3cc(O)c(O)c(O)c3)c2)[C@@H](OC(=O)c2cc(O)c(O)c(OC(=O)c3cc(O)c(O)c(O)c3)c2)[C@@H]1OC(=O)c1cc(O)c(O)c(OC(=O)c2cc(O)c(O)c(O)c2)c1)c1cc(O)c(O)c(OC(=O)c2cc(O)c(O)c(O)c2)c1
2. O=C(OC[C@H]1O[C@H](OC(=O)c2cc(O)c(O)c(OC(=O)c3cc(O)c(O)c(OC(=O)c4cc(O)c(O)c(O)c4)c3)c2)[C@H](OC(=O)c2cc(O)c(O)c(OC(=O)c3cc(O)c(O)c(OC(=O)c4cc(O)c(O)c(O)c4)c3)c2)[C@@H](OC(=O)c2cc(O)c(O)c(OC(=O)c3cc(O)c(O)c(OC(=O)c4cc(O)c(O)c(O)c4)c3)c2)[C@@H]1OC(=O)c1cc(O)c(O)c(OC(=O)c2cc(O)c(O)c(OC(=O)c3cc(O)c(O)c(O)c3)c2)c1)c1cc(O)c(O)c(OC(=O)c2cc(O)c(O)c(OC(=O)c3cc(O)c(O)c(O)c3)c2)c1
3. O=C(Oc1cc(OC(=O)c2cc(O)c(O)c(OC(=O)c3cc(O)c(O)c(OC(=O)c4cc(O)c(O)c(OC(=O)c5cc(O)c(O)c(OC(=O)c6cc(O)c(O)c(O)c6)c5)c4)c3)c2)cc(OC(=O)c2cc(O)c(O)c(OC(=O)c3cc(O)c(O)c(OC(=O)c4cc(O)c(O)c(OC(=O)c5cc(O)c(O)c(OC(=O)c6cc(O)c(O)c(O)c6)c5)c4)c3)c2)c1)c1cc(O)c(O)c(OC(=O)c2cc(O)c(O)c(OC(=O)c3cc(O)c(O)c(OC(=O)c4cc(O)c(O)c(OC(=O)c5cc(O)c(O)c(O)c5)c4)c3)c2)c1

1. 1.32
2. 0.58
3. 1.92

Tell us which logP value is on record for `O=C(Oc1ccccc1)c1cc(O)c(O)c(OC(=O)c2cc(O)c(O)c(OC(=O)c3cc(O)c(O)c(OC(=O)c4cc(O)c(O)c(OC(=O)c5cc(O)c(O)c(O)c5)c4)c3)c2)c1`
2.02
